composite z-score values by entry
target: Streptavidin (Streptomyces avidinii); assay: streptavidin binders on small-molecule microarray, primary screen, artefact control for SMM compound annotation, biophysical, 635/667 nm fluorescence (AID 1147); conditions: streptavidin binding, higher = more signal;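 also: signal reflects streptavidin binding to arrayed compounds as a control protein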
OBSERVED PROPERTY: composite z-score

COc1ccc([Si](C)(C)[C@@H]2[C@@H](CCn3cc([C@H](O)c4ccccc4)nn3)O[C@]3(C(=O)N(Cc4ccc(N5C(=O)c6cccc7cccc5c67)cc4)c4ccccc43)[C@H]2C)cc1 -0.378
O=C(O)[C@H]1C[C@H]2C(=O)NCC(=O)N2[C@H]1c1ccc(O)cc1 -0.54
COc1ccc(C#Cc2ccc3c(c2)[C@]2(C(=O)N3)[C@H](c3ccc(O)cc3)N3[C@H](c4ccccc4)[C@H](c4ccccc4)OC(=O)[C@H]3[C@@H]2C(=O)NC[C@H](O)c2ccccc2)cc1 0.153
COC(=O)[C@@]1(Cc2ccc(OC)cc2)[C@H]2c3cc(C(=O)N4CCCC4)n(Cc4ccccn4)c3C[C@H]2CN1C(=O)c1ccccc1 0.523
CN(C)C(=O)[C@@]1(CCC(=O)OC(C)(C)C)N=C(c2ccc(OCCCO)cc2)O[C@H]1c1ccccc1 0.0732
COCCOC(=O)N1C(=O)[C@@]2(c3cc(C#CC4(O)CCCCCC4)ccc31)[C@H](C(=O)N1CCCCCCC1)[C@H]1C(=O)O[C@H](c3ccccc3)[C@H](c3ccccc3)N1[C@@H]2c1ccccc1OCCO 1.96
